Each recorded value in this set is attributed to PubChem BioAssay (NCI).

- System: SK-MEL-5 melanoma
- Protocol notes: NCI-60 one-dose screen, 48 h (100 = growth as untreated, 0 = no growth, -100 = all killed)
- Condition parameters: 10 µM unless noted
- Protocol: Growth inhibition of the SK-MEL-5 human tumor cell line is measured as a screen for anti-cancer activity. Cells are grown in 96 well plates and exposed to the test compound for 48 hours. Compounds are tested at a single concentration, which is 10^-5 M for most compounds. The reported endpoint is percent growth (GI% or GIPRCNT), where numbers from 0 - 100% represent growth inhibition, and numbers from -100% - 0 represent cell death. For example, a value of 40 represents 60% growth inhibition. […]
About 83,000 compounds went through this panel and 20% of them were active in at least one assay; those are over-represented in the sample as a whole.
As shown below, each of these compounds has a reported growth value.
Give the quantity in %, number only.

OCc1cccc(-c2ccc3ncc(-c4nc(NC5CC5)ncc4F)n3c2)c1: -77.2
C#Cc1cccc(Nc2ncnc3ccc(-c4cnc(N)nc4)cc23)c1: 32.7
CC(C)CCNC(=O)Cn1cccc(NC(=O)OCc2ccccc2)c1=O: 96.1
Fc1cccc(CNc2c3ccccc3nc3ccccc23)c1F: 83
COC(=O)c1n[nH]c2ccc3nc(-c4cn[nH]c4C(F)(F)F)c4c(c3c12)CCCC4: 40.4
CCNc1cc(-c2cccc(OC(F)(F)F)c2)nc2ccc(N3CCCC3)cc12: -64.3
Cc1cccnc1NC(=S)Nc1ncccc1C: 101
C=C1C(=O)O[C@H]2[C@H]1CC/C(COC(=O)NCc1ccc(Cn3c(=O)sn(CCI)c3=O)cc1)=C\CC[C@@]1(C)O[C@@H]21: 98.8
O=C(CI)NC1Oc2ccccc2-c2oc(=O)c(-c3ccccc3)cc21 (stereo not given): 85.5

Shift focus to the following entry.
[in] growth for COc1ccc(CC(C#N)c2cc3ccccc3[nH]2)cc1 (stereo not given) ?
[out] 91.6
